assayed.target: furin, P09958;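 further: purified furin at 1:10 enzyme:substrate in 50 mM HEPES pH 7.5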
Sequence (P09958 whole entry): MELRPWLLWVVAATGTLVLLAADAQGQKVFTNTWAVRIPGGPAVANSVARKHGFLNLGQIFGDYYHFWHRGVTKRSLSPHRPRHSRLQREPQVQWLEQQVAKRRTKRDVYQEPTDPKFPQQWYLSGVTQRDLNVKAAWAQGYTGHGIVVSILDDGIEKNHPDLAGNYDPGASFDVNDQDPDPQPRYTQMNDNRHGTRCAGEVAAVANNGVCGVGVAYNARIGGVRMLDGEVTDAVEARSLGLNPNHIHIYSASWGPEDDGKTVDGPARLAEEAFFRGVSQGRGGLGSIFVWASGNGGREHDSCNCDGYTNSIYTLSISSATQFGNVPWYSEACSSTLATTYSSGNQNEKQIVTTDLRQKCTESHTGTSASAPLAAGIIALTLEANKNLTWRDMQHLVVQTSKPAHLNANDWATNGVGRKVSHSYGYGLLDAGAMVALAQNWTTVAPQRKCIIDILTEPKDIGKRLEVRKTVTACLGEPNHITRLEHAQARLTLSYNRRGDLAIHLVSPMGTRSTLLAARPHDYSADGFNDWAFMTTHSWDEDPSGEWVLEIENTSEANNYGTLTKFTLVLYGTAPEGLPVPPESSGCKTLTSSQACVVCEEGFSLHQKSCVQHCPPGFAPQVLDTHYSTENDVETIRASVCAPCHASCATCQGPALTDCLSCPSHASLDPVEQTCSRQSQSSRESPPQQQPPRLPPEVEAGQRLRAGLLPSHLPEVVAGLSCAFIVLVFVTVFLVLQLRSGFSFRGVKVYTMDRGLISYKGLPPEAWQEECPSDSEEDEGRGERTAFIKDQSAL
assay.procedure: furin cleavage Z-score vs untreated control; higher = more cleavage, active = 3.5 or more, inactive = 1 or less, 8 variable residues between constant flanks
experimental.setup: 15 min
This is one part of the list. How many sequences the whole screen found active is unknown.
property.name: furin cleavage Z-score

Prompt: Consider the sequence CAVIPVRRRGAGNASASA [HC730] and give its measured furin cleavage Z-score.
Completion: 0.132 (inactive)

Prompt: Check CAAPARERRGAGNASASA [FS-6] too.
Completion: 8.29 (active)

Prompt: Okay, and CAPPHSAKSKAGNASASA [HC1417] ?
Completion: -0.582 (inactive)

Prompt: Next record, please: CARAYRSSMRAGNASASA [FS-2894]
Completion: -1.44 (inactive)
